Taken from paper PMC8715118.

- Study target: (α4H116A)3(β2)2 nAChR (Homo sapiens, UniProt P17787+P43681, H142A)
- Construct: expressed in transfected cells; host or cells: Xenopus laevis oocytes injected with cRNA, 8:1 α4:β2
- Sequence (P43681 27-627 H142A): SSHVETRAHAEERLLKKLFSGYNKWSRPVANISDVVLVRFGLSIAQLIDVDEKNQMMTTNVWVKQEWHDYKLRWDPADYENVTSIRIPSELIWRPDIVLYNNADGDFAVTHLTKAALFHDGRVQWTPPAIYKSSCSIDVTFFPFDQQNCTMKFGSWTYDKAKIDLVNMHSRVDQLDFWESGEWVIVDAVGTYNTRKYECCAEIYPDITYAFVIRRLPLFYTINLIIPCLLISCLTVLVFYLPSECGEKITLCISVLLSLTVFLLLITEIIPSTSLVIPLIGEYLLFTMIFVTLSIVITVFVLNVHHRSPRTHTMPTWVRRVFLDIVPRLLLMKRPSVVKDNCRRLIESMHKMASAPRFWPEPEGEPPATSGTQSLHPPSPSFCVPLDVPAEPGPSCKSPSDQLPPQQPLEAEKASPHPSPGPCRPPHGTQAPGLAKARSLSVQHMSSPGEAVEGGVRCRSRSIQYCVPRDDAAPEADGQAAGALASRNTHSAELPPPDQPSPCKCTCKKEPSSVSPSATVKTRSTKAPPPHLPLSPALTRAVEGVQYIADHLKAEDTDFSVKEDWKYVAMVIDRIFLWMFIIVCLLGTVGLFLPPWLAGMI
- Sequence (P17787 26-502): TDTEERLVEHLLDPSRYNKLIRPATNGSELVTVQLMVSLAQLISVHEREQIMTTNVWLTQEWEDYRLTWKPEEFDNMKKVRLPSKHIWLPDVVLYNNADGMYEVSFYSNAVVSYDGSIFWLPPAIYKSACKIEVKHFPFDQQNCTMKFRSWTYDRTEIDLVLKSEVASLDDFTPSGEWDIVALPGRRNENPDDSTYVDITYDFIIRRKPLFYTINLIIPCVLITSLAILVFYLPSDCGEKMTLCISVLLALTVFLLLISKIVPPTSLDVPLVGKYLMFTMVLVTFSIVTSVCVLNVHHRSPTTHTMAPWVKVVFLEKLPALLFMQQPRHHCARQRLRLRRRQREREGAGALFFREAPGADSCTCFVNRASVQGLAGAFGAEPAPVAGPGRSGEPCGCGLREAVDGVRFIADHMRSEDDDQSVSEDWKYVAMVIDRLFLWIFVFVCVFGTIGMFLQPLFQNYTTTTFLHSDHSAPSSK
- Method summary: Two-electrode voltage-clamp, oocytes expressing (α4H116A)3(β2)2 nAChR
- Assay type: cell-based
- Protocol conditions: normalized to 1 μM TC-2559; read-out: EC50 of potentiation of TC-2559-induced current
Measured attribute: EC50 (nM)
Give bare numbers, in nM.

IN: Write down EC50 measured for item Cc1c(-c2cc(-c3ccccc3Cl)no2)cnn1C1CCNCC1
OUT: 200

* * *

- Study target: (α4)3(β2)2 nAChR (Homo sapiens, UniProt P17787+P43681)
- Construct: expressed in transfected cells; host or cells: Xenopus laevis oocytes injected with cRNA, 8:1 α4:β2
- Sequence (P43681 27-627, one chain of several): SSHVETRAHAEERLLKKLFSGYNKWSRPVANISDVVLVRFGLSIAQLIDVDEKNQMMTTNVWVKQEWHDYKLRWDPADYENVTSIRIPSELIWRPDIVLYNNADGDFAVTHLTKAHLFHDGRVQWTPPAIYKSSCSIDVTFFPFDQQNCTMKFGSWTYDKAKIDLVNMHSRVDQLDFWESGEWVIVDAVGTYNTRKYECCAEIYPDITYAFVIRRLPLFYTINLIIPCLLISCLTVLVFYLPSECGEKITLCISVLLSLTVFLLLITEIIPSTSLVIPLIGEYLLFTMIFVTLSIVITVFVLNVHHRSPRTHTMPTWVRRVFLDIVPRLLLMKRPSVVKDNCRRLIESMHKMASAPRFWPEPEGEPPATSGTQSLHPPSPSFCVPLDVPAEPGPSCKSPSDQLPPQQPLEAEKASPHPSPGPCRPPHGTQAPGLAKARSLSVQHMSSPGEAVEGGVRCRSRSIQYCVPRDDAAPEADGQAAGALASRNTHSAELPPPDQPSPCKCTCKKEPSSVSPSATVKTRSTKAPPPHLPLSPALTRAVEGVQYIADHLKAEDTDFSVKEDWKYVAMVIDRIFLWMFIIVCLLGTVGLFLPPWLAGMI
- Method summary: Two-electrode voltage-clamp whole-cell currents, Xenopus oocytes expressing WT (α4)3(β2)2 nAChR
- Assay type: cell-based
- Protocol conditions: receptors activated by 1 μM nicotine; read-out: EC50 for potentiation
Measured attribute: EC50
Entry format: amount then unit.

IN: Determine from records and report EC50 for Cc1c(-c2cc(-c3ccccc3Cl)no2)cnn1C1CCNCC1
OUT: 0.27 µM
